Molecular target: T1, human TREM2 (human, UniProt Q9NZC2 19-174, limits assumed)
T1 construct: also called triggering receptor expressed on myeloid cells 2
T1 sequence: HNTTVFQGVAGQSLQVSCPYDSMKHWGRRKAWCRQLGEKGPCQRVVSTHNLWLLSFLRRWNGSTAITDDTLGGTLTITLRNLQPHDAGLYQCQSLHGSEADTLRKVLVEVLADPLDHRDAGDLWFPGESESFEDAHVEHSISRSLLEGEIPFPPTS
Assay: 1st screen (110 nM or 10 nM)
readout-name: Binding Signal (fold over 6E7 Parental antibody) (fold)
Report as a plain number; the unit fold is understood.

V21 (antibody, V domains shown) VH: EVQLVQSGAEVKKPGESLKISCKGSGYSFTSYWIAWVRQMPGKGLEWMGIIYPGDSDTRYSPSFQGQVTISADKSISTAYLQWSSLKASDTAMYFCARQRTFYYDSSDFFDYWGQGTLVTVSS VL: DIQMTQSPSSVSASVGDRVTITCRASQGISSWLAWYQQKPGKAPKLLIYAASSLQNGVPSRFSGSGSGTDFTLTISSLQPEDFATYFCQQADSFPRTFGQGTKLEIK = 0.76
V32 (antibody, V domains shown) VH: EVQLVQSGAEVKKPGESLKISCKGSGYSFTSYWIAWVRQMPGKGLEWMGIIYPGDSDTRYSNSFQGQVTISADKSISTAYLQWSSLKASDTAMYFCARQRTFYYDSSDYFDYWGQGTLVTVSS VL: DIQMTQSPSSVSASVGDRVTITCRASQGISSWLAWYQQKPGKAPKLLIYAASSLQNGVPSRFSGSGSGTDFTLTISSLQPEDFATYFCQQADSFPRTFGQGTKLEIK = 0.82
V43 (antibody, V domains shown) VH: EVQLVQSGAEVKKPGESLKISCKGSGYSFTSYWIAWVRQMPGKGLEWMGIIYPGDSGTRYSPSFQGQVTISADKSISTAYLQWSSLKASDTAMYFCARQRTFYYDSSDYFDYWGQGTLVTVSS VL: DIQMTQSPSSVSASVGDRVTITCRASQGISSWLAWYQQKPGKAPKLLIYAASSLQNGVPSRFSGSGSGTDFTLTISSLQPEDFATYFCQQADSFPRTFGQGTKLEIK = 0.2
V90 (antibody, V domains shown) VH: EVQLVQSGAEVKKPGESLKISCKGSGYSFTSEWIAWVRQMPGKGLEWMGIIYPGDSDTRYSPSFQGQVTISADKSISTAYLQWSSLKASDTAMYFCARQRTFYYDSSDYFDYWGQGTLVTVSS VL: DIQMTQSPSSVSASVGDRVTITCRASQGISRWLAWYQQKPGKAPKLLIYAASSLQNGVPSRFSGSGSGTDFTLTISSLQPEDFATYFCQQADSFPRTFGQGTKLEIK = 0.33

Query binder follows.
Name the recorded Binding Signal (fold over 6E7 Parental antibody) for V47 (antibody, V domains shown) VH: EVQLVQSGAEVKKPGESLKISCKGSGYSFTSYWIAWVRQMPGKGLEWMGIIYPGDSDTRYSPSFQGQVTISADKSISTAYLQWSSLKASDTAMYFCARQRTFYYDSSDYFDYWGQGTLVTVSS VL: DIQMTQSPSSVSASVGDRVTITCRASQGISSWLAWYQQKPGKAPKLLIYAASSLQNGVPSRFSGSGSGTDFTLTISSLQPEDFATYFCQQADSFPMTFGQGTKLEIK .
0.42
